- Target Entity: pSPP (Plasmodium falciparum, UniProt Q8IKQ9)
- Sequence (Q8IKQ9 entry or part of it): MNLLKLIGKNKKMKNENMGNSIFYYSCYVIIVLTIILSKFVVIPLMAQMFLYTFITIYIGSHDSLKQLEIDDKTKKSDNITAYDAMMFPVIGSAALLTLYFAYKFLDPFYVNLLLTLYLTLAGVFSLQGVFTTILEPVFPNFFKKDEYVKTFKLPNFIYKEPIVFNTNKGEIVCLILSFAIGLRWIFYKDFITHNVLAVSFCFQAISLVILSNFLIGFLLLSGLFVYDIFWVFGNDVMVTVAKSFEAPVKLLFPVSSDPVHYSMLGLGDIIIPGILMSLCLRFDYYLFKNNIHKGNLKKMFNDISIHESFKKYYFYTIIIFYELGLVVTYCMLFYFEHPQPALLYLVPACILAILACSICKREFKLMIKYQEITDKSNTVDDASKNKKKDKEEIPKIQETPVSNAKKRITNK
- Assay Details: FBA/pSPP co-transfected HEK 293T cell cleavage assay (Aβ ELISA, Western blot, IP/MS)
- Assay type: cell-based, human
- Protocol Conditions: pSPP; 25 μM, ELISA
Attribute Measured: inhibition of xAβ1-25/K16A secretion (in words)

C[C@H](NC(=O)[C@@H](O)c1cc(F)cc(F)c1)C(=O)N[C@@H]1C(=O)N(C)c2ccccc2-c2ccccc21 :: largely inhibited
CC(C)C[C@H](NC(=O)OCc1ccccc1)C(=O)N[C@@H](CC(C)C)C(=O)NCC(=O)CNC(=O)[C@H](CC(C)C)NC(=O)[C@H](CC(C)C)NC(=O)OCc1ccccc1 [(Z-LL)2 ketone] :: largely inhibited
